Biological target: T1, gp130 on HepG2 B6 cells (UniProt P40189 23-918, limits assumed)
T1 sequence (looked up): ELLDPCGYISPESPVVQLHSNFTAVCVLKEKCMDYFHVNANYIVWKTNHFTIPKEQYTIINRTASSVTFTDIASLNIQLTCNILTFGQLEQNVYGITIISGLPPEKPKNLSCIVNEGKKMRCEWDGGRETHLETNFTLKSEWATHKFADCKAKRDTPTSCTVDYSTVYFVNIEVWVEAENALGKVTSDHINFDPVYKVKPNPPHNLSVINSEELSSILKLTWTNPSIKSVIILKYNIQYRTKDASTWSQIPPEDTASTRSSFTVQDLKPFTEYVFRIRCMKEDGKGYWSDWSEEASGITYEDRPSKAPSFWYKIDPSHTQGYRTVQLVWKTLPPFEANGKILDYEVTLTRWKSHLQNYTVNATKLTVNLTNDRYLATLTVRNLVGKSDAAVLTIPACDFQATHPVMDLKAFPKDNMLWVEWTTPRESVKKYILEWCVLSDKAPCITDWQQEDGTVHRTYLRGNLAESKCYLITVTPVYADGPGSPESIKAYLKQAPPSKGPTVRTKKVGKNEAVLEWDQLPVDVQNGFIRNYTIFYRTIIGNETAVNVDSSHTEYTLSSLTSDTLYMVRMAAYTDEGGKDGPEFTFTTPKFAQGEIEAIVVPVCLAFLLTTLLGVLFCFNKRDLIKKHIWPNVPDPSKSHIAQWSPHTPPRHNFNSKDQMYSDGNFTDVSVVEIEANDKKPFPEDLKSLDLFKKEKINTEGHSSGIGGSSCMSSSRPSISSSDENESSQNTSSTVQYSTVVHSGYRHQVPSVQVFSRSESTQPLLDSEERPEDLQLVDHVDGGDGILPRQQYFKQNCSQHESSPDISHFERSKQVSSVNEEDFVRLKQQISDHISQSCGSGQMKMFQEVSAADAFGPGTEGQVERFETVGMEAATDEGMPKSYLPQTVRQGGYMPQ
Assay: cell-based or functional assay
# maps each entry to its sPAP HepG2 B6 assay: Expt 1 EC50
Only the number, expressed in µg/mL, is required.

>  <binder>
OSM-GST mutant N117A (ligand, not shown: a dimerising Fc or GST; large carriers; small tags and cut ends, Alanine mutant of m4; also called (18)N117A; 18 N117A) AAIGSCSKEYRVLLGQLQKQTDLMQDTSRLLDPYIRIQGLDVPKLREHCRERPGAFPSEETLRGLGRRGFLQTLNATLGCVLHRLADLEQRLPKAQDLERSGLNIEDLEKLQMARPAILGLRNNIYCMAQLLDNSDTAEPTKAGRGASQPPTPTPASDAFQRKLEGCRFLHGYHRFMHSVGRVFSKWGESPNRSRR

>  <data_value>
0.058

$$$$

Please look at the following binder next.
Form field sPAP HepG2 B6 assay: Expt 1 EC50, entry OSM-GST mutant D22A (ligand, not shown: a dimerising Fc or GST; large carriers; small tags and cut ends, Alanine mutant of m4; also called (15)D22; 15 D22) AAIGSCSKEYRVLLGQLQKQTALMQDTSRLLDPYIRIQGLDVPKLREHCRERPGAFPSEETLRGLGRRGFLQTLNATLGCVLHRLADLEQRLPKAQDLERSGLNIEDLEKLQMARPNILGLRNNIYCMAQLLDNSDTAEPTKAGRGASQPPTPTPASDAFQRKLEGCRFLHGYHRFMHSVGRVFSKWGESPNRSRR : 0.0367

These entries and their values trace back to patent US6706266.
